Target: UniProt:Q06710
Sequence (Q06710 whole entry): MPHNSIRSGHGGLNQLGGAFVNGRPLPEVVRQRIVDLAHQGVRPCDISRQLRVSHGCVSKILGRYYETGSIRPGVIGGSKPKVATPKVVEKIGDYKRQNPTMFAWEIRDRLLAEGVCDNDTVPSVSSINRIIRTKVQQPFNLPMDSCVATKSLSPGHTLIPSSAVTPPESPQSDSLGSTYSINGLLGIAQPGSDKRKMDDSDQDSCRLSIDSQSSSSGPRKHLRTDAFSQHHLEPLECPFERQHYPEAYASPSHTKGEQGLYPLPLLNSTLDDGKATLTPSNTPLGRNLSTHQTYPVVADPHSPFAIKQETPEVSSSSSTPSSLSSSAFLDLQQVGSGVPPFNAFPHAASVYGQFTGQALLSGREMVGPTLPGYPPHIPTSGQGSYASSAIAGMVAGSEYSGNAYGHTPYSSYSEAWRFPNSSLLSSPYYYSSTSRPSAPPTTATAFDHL
Assay: PAX8 transcriptional activity inhibition in RMG-I – RMG-I cells, luciferase, cherry-pick, dose response (AID 687027);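 note: luciferase reporter driven by Pax8 target thyroperoxidase promoter measured by SteadyGlo luminescence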
Type: functional, cell-based
Calls of active or inactive are those of the source. The rule behind the calls is not given here.
So I've got a bunch of compounds here, and I need their AC50 values.

IN: Requested read-out: AC50. Entry: CCCCCCCn1c2c(c(=N)c3c1CCC3)CCCC2
OUT: 0.677 µM (active)

IN: Requested read-out: AC50. Entry: Cc1ccc(S(=O)(=O)Nc2cccc3c2O[C@@H](CN(C)Cc2ccc(Oc4ccccc4)cc2)[C@@H](C)CN([C@H](C)CO)C3=O)cc1
OUT: 12.2 µM (active)

IN: Requested read-out: AC50. Entry: COc1ccc(S(=O)(=O)Nc2ccc3c(c2)C(=O)N([C@@H](C)CO)C[C@@H](C)[C@H](CN(C)Cc2ccc(C(F)(F)F)cc2)OCCCC[C@H](C)O3)cc1
OUT: 10.8 µM (active)

IN: Requested read-out: AC50. Entry: O=C(CN1C(=O)c2ccccc2S1(=O)=O)N1CCc2ccccc21
OUT: 4.88 µM (active)

IN: Requested read-out: AC50. Entry: CCCCCCN1C[C@@H](n2cc(-c3ccc(F)cc3)nn2)[C@H](O)C[C@@H]1c1ccc(Cl)cc1
OUT: 9.71 µM (active)

IN: Requested read-out: AC50. Entry: COc1ccc(CN(C)C[C@H]2OCCCC[C@H](C)Oc3ccc(NC(=O)Nc4ccc(C(F)(F)F)cc4)cc3C(=O)N([C@H](C)CO)C[C@H]2C)cc1
OUT: 9.16 µM (active)

###

Assay: viability of uninfected HEp-2 cells – cell-based, HTS, cytotoxicity control for RSV inhibitor project, dose response (AID 2410)
Format: functional
Conditions: human respiratory syncytial virus
Activity calls are given as the source filed them. The rule behind the calls is not given here.
So I've got a bunch of compounds here, and I need their CC50 values.

IN: Requested read-out: CC50. Entry: Cc1ccc(C)c(-c2cc(C(=O)Nc3sc(C)c(C)c3C(N)=O)c3ccccc3n2)c1
OUT: 9.97 µM (active)

IN: Requested read-out: CC50. Entry: Cc1ccc(-n2c(C)nc3c(cnn3-c3ccc(C)c(C)c3)c2=O)cc1C
OUT: 48.5 µM (active)

IN: Requested read-out: CC50. Entry: O=C(NC1=NCCS1)c1cc(-c2ccc(-c3ccccc3)cc2)nc2ccccc12
OUT: 21.9 µM (active)

IN: Requested read-out: CC50. Entry: O=c1cnn([C@@H]2O[C@H](CO)[C@@H](O)[C@H]2O)c(=O)[nH]1
OUT: 11.9 µM (active)

IN: Requested read-out: CC50. Entry: CCOC(=O)N1CCC(/N=c2\c(O)c(O)\c2=N/c2cccc(CC)c2)CC1
OUT: 39.3 µM (active)

IN: Requested read-out: CC50. Entry: CCn1c(=O)n(CC)c2cc(N3CCCC3)c(NC(=O)c3cc(Br)ccc3OC)cc21
OUT: 16.4 µM (active)

IN: Requested read-out: CC50. Entry: CCN(CC)C(=O)Oc1ccc2ccccc2c1Br
OUT: 44.8 µM (active)

IN: Requested read-out: CC50. Entry: Cc1ccc(-n2nc3c(=O)n(CCCC(=O)NCCc4ccccc4C)nc(C)c3c2C)cc1
OUT: > 50 µM (active)

IN: Requested read-out: CC50. Entry: Cc1c2c(nc3ccccc13)CCC(C(C)(C)C)C2 (centres undefined)
OUT: 44.4 µM (active)

The reported measurements were obtained from ChEMBL document CHEMBL1201862.
